Where do the numbers come from? From patent US12612410B2.

target: IRAK1 (Homo sapiens, UniProt P51617); assay: RBC HotSpot Kinase Assay, IRAK1; conditions: isolated kinase, 33P-ATP
Sequence (P51617 whole entry): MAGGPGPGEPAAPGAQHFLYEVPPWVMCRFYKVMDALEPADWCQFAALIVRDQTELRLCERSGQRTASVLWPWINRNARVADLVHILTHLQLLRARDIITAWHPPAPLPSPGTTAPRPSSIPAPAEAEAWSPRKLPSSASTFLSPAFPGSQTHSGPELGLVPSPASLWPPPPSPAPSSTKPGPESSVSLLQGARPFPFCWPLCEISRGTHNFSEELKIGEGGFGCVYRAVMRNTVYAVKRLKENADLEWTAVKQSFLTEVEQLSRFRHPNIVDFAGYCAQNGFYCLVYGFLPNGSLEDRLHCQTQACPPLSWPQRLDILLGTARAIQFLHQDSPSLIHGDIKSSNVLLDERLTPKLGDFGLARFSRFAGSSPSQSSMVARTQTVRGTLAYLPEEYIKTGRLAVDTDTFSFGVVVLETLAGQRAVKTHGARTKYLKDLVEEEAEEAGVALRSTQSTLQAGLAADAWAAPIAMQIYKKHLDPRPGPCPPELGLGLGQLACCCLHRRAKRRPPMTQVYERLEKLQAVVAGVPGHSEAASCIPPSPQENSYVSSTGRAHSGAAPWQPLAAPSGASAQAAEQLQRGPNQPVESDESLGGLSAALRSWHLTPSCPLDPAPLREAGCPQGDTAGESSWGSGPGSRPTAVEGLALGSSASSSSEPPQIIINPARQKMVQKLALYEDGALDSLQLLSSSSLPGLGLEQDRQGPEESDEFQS
pIC50: −log10 of the molar value.
RECORDED_ENDPOINT: pIC50

molecular_string=FC(F)(F)COc1cn2c(-c3cccc(N[C@@H]4CCNC4)n3)cnc2cn1 target_system="IRAK1 (Homo sapiens, UniProt P51617)" experimental_result=7.04

[a] c1cc(N[C@@H]2CCCNC2)nc(-c2cnc3cnc(C4CC4)cn23)c1
[b] FC(F)COc1cn2c(-c3cccc(N[C@H]4CNCC[C@@H]4F)n3)cnc2cn1
[c] FC(F)COc1cn2c(-c3cccc(N[C@@H]4CCCNC4)n3)cnc2cn1
Order the records, beginning with the lowest pIC50 and ending with the highest. Respond with an ordered listing of the labels, as requested.
c, b, a
